Just for reference, PubChem BioAssay AID1159580 is where these values come from.

assay_protocol: chemical genetic growth profiling, strain panel (AID 1159580);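 also: tested at 20 µM; growth read once vehicle control cultures reached saturation at 30 °C; 1 = growth at the plate median or of vehicle wells; lower values mean less growth of the strain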
run_conditions: S. cerevisiae deletion strains, growth OD, locus YDL134C, strain PPH21, hits give low values
Hit rate of the full screen: of about 5,500 compounds, about 2,000 (36%) were called active. Roughly 18% stayed inconclusive and do not appear here. The list shows a part of the results.
Reported normalized growth values follow for various molecules

Please review the entries below; each comes with its answer.
molecule: C=C(CC)C(=O)c1ccc(OCC(=O)O)c(Cl)c1Cl
readout_kind: normalized growth
result: 0.972 (inactive)
--
molecule: CC(C)(C)NCC(O)c1ccccc1Cl (stereo not given)
readout_kind: normalized growth
result: 0.98 (inactive)
--
molecule: C1CCN2C[C@@H]3C[C@H](CN4CCCC[C@@H]34)[C@H]2C1
readout_kind: normalized growth
result: 1 (inactive)
--
molecule: COc1cccc(C2C3=C(CC(C)(C)CC3=O)OC3=C2C(=O)CC(C)(C)C3)c1O
readout_kind: normalized growth
result: 0.978 (inactive)
--
molecule: CC(C)NCC(O)c1ccc2ccccc2c1 (stereo not given)
readout_kind: normalized growth
result: 1.02 (inactive)
--
molecule: COc1cc(OC)c2c(=O)c(-c3ccccc3)c(C)oc2c1OC
readout_kind: normalized growth
result: 1 (inactive)
--
molecule: Nc1ncnc2c1ncn2C1O[C@H](COP(=O)(O)O)[C@@H](O)[C@H]1O (stereo not given in full)
readout_kind: normalized growth
result: 1.02 (inactive)
--
molecule: O=C(N/N=C\c1cccs1)c1ccccc1CO
readout_kind: normalized growth
result: 1 (inactive)

input: Please give measured normalized growth of the following entry: CC1C(c2ccccc2)OCCN1CN1C(=O)c2ccccc2C1=O (stereo not given)
output: 1.01 (inactive)

input: Could you please provide reported normalized growth for CC(C)N(C(=O)SCC(Cl)=C(Cl)Cl)C(C)C ? Thanks!
output: 1.02 (inactive)

input: Indicate its recorded normalized growth; the molecule in question is CCCCCCNC(=O)NCCCCCC
output: 0.925 (inactive)

input: Give normalized growth for the following molecule: CC(=O)NCCCCCC(=O)O
output: 1 (inactive)

input: Output measured normalized growth for this item: CC1(C)C(=O)C=CC2(C)C3CCC4(C)C(c5ccoc5)CC5OC54C3C(O)CC12 (stereo not given)
output: 0.945 (inactive)

input: Consider the molecule CC(C)N(Cc1ccc(N(C)C)cc1)S(=O)(=O)c1cc(Cl)c(Cl)cc1Cl and give its recorded normalized growth.
output: 1.01 (inactive)

input: Check the records and state normalized growth for O=C1CCCC2C3CC(CN12)[C@@H]1CCCCN1C3 (stereo not given in full)
output: 0.993 (inactive)

input: Report measured normalized growth; entry is CC(=O)O[C@@H]1C[C@@]2(C)[C@H](c3ccoc3)C[C@H]3O[C@]32[C@]2(C)C(=O)C(O)=C3C(C)(C)C(=O)C=C[C@]3(C)C12 (stereo not given in full)
output: 0.921 (inactive)

input: Look up normalized growth of CCC(Cc1c(I)cc(I)c(N)c1I)C(=O)O (stereo not given) and report it.
output: 1.01 (inactive)

input: Answer with the recorded normalized growth of NCC(O)c1ccc(O)cc1 (stereo not given) only.
output: 0.996 (inactive)

input: Give a short answer stating reported normalized growth for OC(CNCCc1cccs1)COc1ccccc1 (stereo not given) .
output: 0.986 (inactive)

input: Look up normalized growth of CCCc1occc(=O)c1/C=C/O and report it.
output: 0.939 (inactive)

input: Provide measured normalized growth value, entry: COC(=O)c1cc(OC)c(OC)cc1-n1c(C)ccc1C
output: 1.03 (inactive)

input: Please look at this molecule and report its normalized growth: CC(C)(C)C(=O)NC(=S)Nc1cccc(C(F)(F)F)c1
output: 0.804 (active)

input: Quickly give me recorded normalized growth for Nc1nc2c(ncn2C2C[C@H](O)[C@@H](CO)O2)c(=O)[nH]1 (stereo not given in full)
output: 1.01 (inactive)

input: Give a short answer stating reported normalized growth for CN1C(CC(=O)c2ccccc2)CCCC1CC(O)c1ccccc1 (stereo not given) .
output: 1.01 (inactive)

input: Look up normalized growth of CC(=O)Oc1ccc(Cl)c2cccnc12 and report it.
output: 0.0511 (active)
